System: HCT-15
procedureDetails: Cytotoxicity against multidrug-resistant human HCT15 cells at 1 uM by thymidine incorporation assay
Type: functional
Peptide text beside a SMILES is read from it. * marks the point of attachment. Cbz = O=C(OCc1ccccc1)*
quantityKind: inhibition at 1 µM (%)
Numbers only, in %.

Below are worked cases with known answers.
# compound, unitSymbol, inhibition at 1 µM
records = [
    ("CC(C)C[C@@H]1NC(=O)[C@H](Cc2ccccc2)NC(=O)[C@H](CC(C)C)NC(=O)[C@H](C(C)C)NC(=O)[C@H](CCCCNC(=O)OCc2ccccc2)NC1=O (cyclo(FLK(Cbz)VL))", "%", 41),
    ("CC(C)C[C@@H]1NC(=O)[C@H](Cc2ccccc2)NC(=O)[C@@H](CO)NC(=O)[C@H](C(C)C)NC(=O)[C@H](CC(C)C)NC1=O (HELM PEPTIDE1{F.L.L.V.[dS]}$PEPTIDE1,PEPTIDE1,1:R1-5:R2$$$V2.0)", "%", 3),
    ("CC(C)C[C@@H]1NC(=O)[C@H](C(C)C)NC(=O)[C@H](CC(C)C)N(C)C(=O)[C@@H](CC(C)C)NC(=O)[C@H](Cc2ccccc2)NC1=O (HELM PEPTIDE1{F.[dL].[meL].V.L}$PEPTIDE1,PEPTIDE1,1:R1-5:R2$$$V2.0)", "%", 30),
]

Shift focus to the following entry.
Challenge: Give inhibition at 1 µM (HCT-15) of the following compound: CC(C)C[C@@H]1NC(=O)[C@H](C(C)C)NC(=O)[C@H](CC(C)C)N(C)C(=O)[C@H](CC(C)C)NC(=O)[C@H](Cc2ccccc2)NC1=O (HELM PEPTIDE1{F.L.[meL].V.L}$PEPTIDE1,PEPTIDE1,1:R1-5:R2$$$V2.0)
Response given: 57

====

Tested on: HCT-15
procedureDetails: Cytotoxicity against multidrug-resistant human HCT15 cells at 1 uM by thymidine incorporation assay
Assay type: functional
Peptide text beside a SMILES is read from it.
Provide the reported inhibition at 1 µM of each item.
One number for each entry, in %.

Below are worked cases with known answers.
# compound, unitSymbol, inhibition at 1 µM
rows = [
    ("CC(C)C[C@@H]1NC(=O)[C@H](C(C)C)NC(=O)[C@H](CC(C)C)NC(=O)[C@@H](CC(C)C)NC(=O)[C@H](Cc2ccccc2)NC1=O (HELM PEPTIDE1{F.[dL].L.V.L}$PEPTIDE1,PEPTIDE1,1:R1-5:R2$$$V2.0)", "%", 10),
    ("CC(C)C[C@@H]1NC(=O)[C@H](Cc2ccccc2)NC(=O)[C@H](CC(C)C)NC(=O)[C@H](C(C)C)N(C)C(=O)[C@H](CC(C)C)NC1=O (HELM PEPTIDE1{F.L.L.[meV].L}$PEPTIDE1,PEPTIDE1,1:R1-5:R2$$$V2.0)", "%", 23),
    ("CC(C)C[C@@H]1NC(=O)[C@H](Cc2ccccc2)NC(=O)[C@@H](CC(C)C)NC(=O)[C@H](C(C)C)NC(=O)[C@H](CC(C)C)NC1=O (HELM PEPTIDE1{F.L.L.V.[dL]}$PEPTIDE1,PEPTIDE1,1:R1-5:R2$$$V2.0)", "%", 10),
]

Challenge: Which inhibition at 1 µM reading was recorded for the compound CC(C)C[C@@H]1NC(=O)[C@H](CC(C)C)N(C)C(=O)[C@H](Cc2ccccc2)NC(=O)[C@H](CC(C)C)N(C)C(=O)[C@H](C(C)C)NC1=O (HELM PEPTIDE1{F.[meL].L.V.[meL]}$PEPTIDE1,PEPTIDE1,1:R1-5:R2$$$V2.0) ?
Response given: 0
